Listing: hMC1r Emax of selected binders
measured.on: human melanocortin receptor-1 (human, UniProt Q01726 1-317)
Sequence (Q01726 whole entry): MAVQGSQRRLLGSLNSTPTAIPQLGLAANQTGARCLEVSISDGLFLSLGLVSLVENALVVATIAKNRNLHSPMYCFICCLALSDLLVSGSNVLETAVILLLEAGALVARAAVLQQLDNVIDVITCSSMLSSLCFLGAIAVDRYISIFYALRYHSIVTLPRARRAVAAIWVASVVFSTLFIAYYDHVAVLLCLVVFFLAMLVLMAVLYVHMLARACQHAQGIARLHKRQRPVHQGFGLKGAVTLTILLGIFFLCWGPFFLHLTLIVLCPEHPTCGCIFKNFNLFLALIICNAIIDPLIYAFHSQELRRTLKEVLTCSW
assay.name: cell-based or functional assay
Positions of bridges follow the written chain, without caps; N, C: chain ends. Non-standard residues stand in square brackets, D forms with d. 2Nal = N[C@@H](Cc1ccc2ccccc2c1)C(=O)O; Orn = NCCC[C@H](N)C(=O)O
Answer with a number only, understood to be in %.

Example cases with answers are listed next.
binder="Ac-RKN[dF]R[2Nal]D-NH2 (lactam 2-7; SMILES CC(=O)N[C@@H](CCCNC(=N)N)C(=O)N[C@H]1CCCCNC(=O)C[C@@H](C(N)=O)NC(=O)[C@H](Cc2ccc3ccccc3c2)NC(=O)[C@H](CCCNC(=N)N)NC(=O)[C@@H](Cc2ccccc2)NC(=O)[C@H](CC(N)=O)NC1=O, also called Ac-Arg-cyclo(Lys-Asn-D-Phe-Arg-Nal2-Asp)-NH2) [Peptide No. 162]" quantity_name="hMC1r Emax" recorded_measurement=89
binder="Ac-[dR]DQ[dF]RWK-NH2 (lactam 2-7) [Peptide No. 71]" quantity_name="hMC1r Emax" recorded_measurement=88
binder="Ac-RKN[dF]RWD-NH2 (lactam 2-7, also called Ac-Arg-cyclo(Lys-Asn-D-Phe-Arg-Trp-Asp)-NH2) [Peptide No. 155]" quantity_name="hMC1r Emax" recorded_measurement=91

Lab note: next binder to report on.
Value of hMC1r Emax reported for the binder Ac-R[Orn]Q[dF]RWE-NH2 (lactam 2-7) [Peptide No. 150] is 89
